biological target: HIV-1 PR (Human immunodeficiency virus type 1 group M subtype B); assay: HIV-protease inhibitory activity assay (FRET peptide substrate); settings: Test Example 1
measurement.name: IC50 (nM)
# output: bare number, implied unit nM

// worked examples, IC50 included
[
  {
    "compound": "COc1ccc(S(=O)(=O)N(CC(C)C)CC(O)C(Cc2ccc(N3CC4CC(Oc5ccccc5-c5sc6c(c5C(=O)O)CC(C)(C)CC6)CC4C3)cc2)NC(=O)OC2COC3(C)OCCC23)cc1 (centres unmarked) [Compound I-508]",
    "tested.system": "HIV-1 PR (Human immunodeficiency virus type 1 group M subtype B)",
    "measurement.name": "IC50",
    "result.value": 8.48
  },
  {
    "compound": "COc1ccc(S(=O)(=O)N(CC(C)C)CC(O)C(Cc2ccc(NCc3cc(N4CCCC4)ccc3-c3sc4c(c3C(=O)O)CC(C)(C)CC4)cc2)NC(=O)OC2COC3(C)OCCC23)cc1 (centres unmarked) [Compound I-480]",
    "tested.system": "HIV-1 PR (Human immunodeficiency virus type 1 group M subtype B)",
    "measurement.name": "IC50",
    "result.value": 2.36
  },
  {
    "compound": "CC(C)CN(CC(O)C(Cc1ccc(NCc2cc(C(F)(F)F)ccc2-c2sc3c(c2C(=O)O)CC(C)(C)CC3)cc1)NC(=O)OC1COC2OCCC12)S(=O)(=O)c1ccc2ncsc2c1 (centres unmarked) [Compound I-871]",
    "tested.system": "HIV-1 PR (Human immunodeficiency virus type 1 group M subtype B)",
    "measurement.name": "IC50",
    "result.value": 4.93
  }
]

Give me measured IC50, please, for this compound: COc1ccc(S(=O)(=O)N(CC(C)C)CC(O)C(Cc2ccc(N(C)Cc3cc(C(F)(F)F)ccc3-n3nc(C(=O)O)c4c3CCC(C)(C)C4)cc2)NC(=O)OC2COC3(C)OCCC23)cc1 (centres unmarked) [Compound I-447]
2.37

Read off the recorded IC50 for COc1ccc(S(=O)(=O)N(CC(C)C)CC(O)C(Cc2ccc(NCc3ccccc3-c3nc4n(c3C(=O)O)CCCC4)cc2)NC(=O)OC2COC3(C)OCCC23)cc1 (centres unmarked) [Compound I-368]
2.11

----------
molecular target: HIV-1 PR (Human immunodeficiency virus type 1 group M subtype B); assay: HIV-protease inhibitory activity assay (FRET peptide substrate); details: Test Example 1
Reported pIC50 by item:
The scale used: pIC50 is minus the common logarithm of the concentration in molar units.

Consider the reported pIC50 for these molecules:
[
  {
    "molecule": "COc1ccc(S(=O)(=O)N(CC(C)C)CC(O)C(Cc2ccc(N(C)Cc3ncccc3-c3cccc(-c4sc5c(c4C(=O)O)CC(C)(C)CC5)c3)cc2)NC(=O)OC2COC3(C)OCCC23)cc1 (stereo not drawn)",
    "tested.system": "HIV-1 PR (Human immunodeficiency virus type 1 group M subtype B)",
    "measurement.name": "pIC50",
    "result.value": 8.79
  },
  {
    "molecule": "COc1ccc(S(=O)(=O)N(CC(C)C)CC(O)C(Cc2ccc(N3CCc4c(cccc4-c4sc5c(c4C(=O)O)CC(C)(C)CC5)C3)cc2)NC(=O)OC2COC3(C)OCCC23)cc1 (stereo not drawn)",
    "tested.system": "HIV-1 PR (Human immunodeficiency virus type 1 group M subtype B)",
    "measurement.name": "pIC50",
    "result.value": 8.35
  }
]

Please look at the following molecule next.
Given the molecule COc1ccc(S(=O)(=O)N(CC(C)C)CC(O)C(Cc2ccc(N(C)Cc3ccc(OC)cc3C(=O)Nc3sc4c(c3C(=O)O)CC(C)(C)CC4)cc2)NC(=O)OC2COC3(C)OCCC23)cc1 (stereo not drawn) , write its reported pIC50.
8.24

----------
biological target: HIV-1 PR (Human immunodeficiency virus type 1 group M subtype B, UniProt P04585); experiment: HIV-protease inhibitory activity assay (FRET peptide substrate); settings: Test Example 1
# IC50 annotations
Reply with just the number (in nM).

Solved cases below.
[
  {
    "compound": "COc1ccc(S(=O)(=O)N(CC(C)C)CC(O)C(Cc2ccc(NCc3ccccc3-c3ccsc3C(=O)O)cc2)NC(=O)OC2COC3(C)OCCC23)cc1 (centres unmarked)",
    "measurement.name": "IC50",
    "result.value": 1.83
  },
  {
    "compound": "COc1ccc(S(=O)(=O)N(CC(C)C)CC(O)C(Cc2ccc(NCc3cccc(F)c3-c3sc4c(c3C(=O)O)CC(C)(C)CC4)cc2)NC(=O)OC2COC3(C)OCCC23)cc1 (centres unmarked)",
    "measurement.name": "IC50",
    "result.value": 1.94
  },
  {
    "compound": "COc1ccc(S(=O)(=O)N(CC(C)C)CC(O)C(Cc2ccc(NCc3cnn4ccc(C(=O)Nc5sc6c(c5C(=O)O)CC(C)(C)CC6)nc34)cc2)NC(=O)OC2COC3(C)OCCC23)cc1 (centres unmarked)",
    "measurement.name": "IC50",
    "result.value": 2.95
  }
]

Entry COc1ccc(S(=O)(=O)N(CC(C)C)CC(O)C(Cc2ccc(N(C)CC3=C(c4sc5c(c4C(=O)O)CC(C)(C)CC5)COC3)cc2)NC(=O)OC2COC3(C)OCCC23)cc1 (centres unmarked) needs its IC50 filled in; supply it.
2.22

Give IC50 for COc1ccc(S(=O)(=O)N(CC(C)C)CC(O)C(Cc2ccc(NCc3ccc4scc(C(=O)O)c4c3)cc2)NC(=O)OC2COC3(C)OCCC23)cc1 (centres unmarked)
1.93

----------
Item-by-item account of IC50
target: UniProt P04585; assay: HIV-protease inhibitory activity assay (FRET peptide substrate); conditions: Test Example 1
Lab book: enter the figure in nM, no units written.

Take a look at these entries with their results.
[
  {
    "molecule": "COc1ccc(S(=O)(=O)N(CC(C)C)CC(O)C(Cc2ccc(N(C)Cc3ccccc3NC(=O)c3sc4c(c3C(=O)O)CC(C)(C)CC4)cc2)NC(=O)OC2COC3(C)OCCC23)cc1 (stereo not drawn) [Compound I-587]",
    "measurement.name": "IC50",
    "display.unit": "nM",
    "result.value": 1.71
  },
  {
    "molecule": "COc1ccc(S(=O)(=O)N(CC(C)C)CC(O)C(Cc2ccc(N(C)Cc3nc(N4CCCC4)sc3-c3ccc(-c4sc5c(c4C(=O)O)CC(C)(C)CC5)cc3)cc2)NC(=O)OC2COC3(C)OCCC23)cc1 (stereo not drawn) [Compound I-715]",
    "measurement.name": "IC50",
    "display.unit": "nM",
    "result.value": 5.31
  }
]

Entry COc1ccc(S(=O)(=O)N(CC(C)C)CC(O)C(Cc2ccc(NCc3cc(N4CCN(C)CC4)ccc3-c3sc4c(c3C(=O)O)CC(C)(C)CC4)cc2)NC(=O)OC2COC3(C)OCCC23)cc1 (stereo not drawn) [Compound I-680] needs its IC50 filled in; supply it.
2.1

----------
target: HIV-1 PR (Human immunodeficiency virus type 1 group M subtype B); assay: HIV-protease inhibitory activity assay (FRET peptide substrate); settings: Test Example 1
measurement.name: IC50 (nM)
Response body: numeric value in nM, unit text excluded.

Please review the entries below; each comes with its answer.
[
  {
    "compound": "CC1(C)CCc2sc(-c3cccnc3COc3ccc(CC(NC(=O)OC4COC5(C)OCCC45)C(O)CN(CC4CCCC4)S(=O)(=O)c4ccc5c(c4)CCO5)cc3)c(C(=O)O)c2C1 (centres unmarked)",
    "tested.system": "HIV-1 PR (Human immunodeficiency virus type 1 group M subtype B)",
    "result.value": 2.53
  },
  {
    "compound": "COc1ccc(S(=O)(=O)N(CC(C)C)CC(O)C(Cc2ccc(NCC3=C(C(=O)Nc4sc5c(c4C(=O)O)CC(C)(C)CC5)CCC3)cc2)NC(=O)OC2COC3(C)OCCC23)cc1 (centres unmarked)",
    "tested.system": "HIV-1 PR (Human immunodeficiency virus type 1 group M subtype B)",
    "result.value": 3.48
  }
]

Respond only with IC50 recorded for COc1ccc(S(=O)(=O)N(CC(C)C)CC(O)C(Cc2ccc(NCc3ccc(-c4sc5c(c4C(=O)O)CC(C)(C)CC5)c(OC)c3)cc2)NC(=O)OC2COC3(C)OCCC23)cc1 (centres unmarked)
1.77

Output measured IC50 for this item: COc1ccc(S(=O)(=O)N(CC(C)C)CC(O)C(Cc2ccc(NCc3cc(N4CCCCC4=O)ccc3-c3sc4c(c3C(=O)O)CC(C)(C)CC4)cc2)NC(=O)OC2COC3(C)OCCC23)cc1 (centres unmarked)
1.64

# return recorded IC50 for input COc1ccc(S(=O)(=O)N(CC(C)C)CC(O)C(Cc2ccc(N(C)Cc3cc4ccccc4cc3-c3sc4c(c3C(=O)O)CC(C)(C)CC4)cc2)NC(=O)OC2COC3(C)OCCC23)cc1 (centres unmarked)
9.36

# credit: patent US20170253607A1
